System: High Density cholesterol (Chl Large) plaque particles
Experiment: Mass spectroscopy proteomics, semi-quantitative binding affinity of serum proteins (plaqueproteome, Table 2)
Design: species or system human
Details: higher number = stronger affinity
OBSERVATION TYPE: Semi-quantitative analysis of proteins binding to different plaque particles: Chl Large

Previously resolved entries follow.
MOLECULE	VALUE MEASURED
Protein S100-A7 (protein) SNTQAERSIIGMIDMFHKYTRRDDKIEKPSLLTMMKENFPNFLSACDKKGTNYLADVFEKKDKNEDKKIDFSEFLSLLGDIATDYHKQSHGAAPCSGGSQ	0
Leucine-rich alpha-2-glycoprotein (protein) VTLSPKDCQVFRSDHGSSISCQPPAEIPGYLPADTVHLAVEFFNLTHLPANLLQGASKLQELHLSSNGLESLSPEFLRPVPQLRVLDLTRNALTGLPPGLFQASATLDTLVLKENQLEVLEVSWLHGLKALGHLDLSGNRLRKLPPGLLANFTLLRTLDLGENQLETLPPDLLRGPLQLERLHLEGNKLQVLGKDLLLPQPDLRYLFLNGNKLARVAAGAFQGLRQLDMLDLSNNSLASVPEGLWASLGQPNWDMRDGFDISGNPWICDQNLSDLYRWLQAQKDKMFSQNDTRCAGPEAVKGQTLLAVAKSQ	2

// next item, Semi-quantitative analysis of proteins binding to different plaque particles: Chl Large requested
Lookup result for Isoform 2 of Nucleophosmin (protein) MEDSMDMDMSPLRPQNYLFGCELKADKDYHFKVDNDENEHQLSLRTVSLGAGAKDELHIVEAEAMNYEGSPIKVTLATLKMSVQPTVSLGGFEITPPVVLRLKCGSGPVHISGQHLVAVEEDAESEDEEEEDVKLLSISGKRSAPGGGSKVPQKKVKLAADEDDDDDDEEDDDEDDDDDDFDDEEAEEKAPVKKGQESFKKQEKTPKTPKGPSSVEDIKAKMQASIEKGGSLPKVEAKFINYVKNCFRMTDQEAIQDLWQWRKSL ; measured Semi-quantitative analysis of proteins binding to different plaque particles: Chl Large: 0
